target: PI 3-kinase alpha (Homo sapiens, UniProt P42336); experiment: Kinase Glo Luminescent Kinase Assay (Kglo), assay A; format: biochemical; conditions: read-out: Assay A PI3Kα IC50
Sequence (P42336 whole entry): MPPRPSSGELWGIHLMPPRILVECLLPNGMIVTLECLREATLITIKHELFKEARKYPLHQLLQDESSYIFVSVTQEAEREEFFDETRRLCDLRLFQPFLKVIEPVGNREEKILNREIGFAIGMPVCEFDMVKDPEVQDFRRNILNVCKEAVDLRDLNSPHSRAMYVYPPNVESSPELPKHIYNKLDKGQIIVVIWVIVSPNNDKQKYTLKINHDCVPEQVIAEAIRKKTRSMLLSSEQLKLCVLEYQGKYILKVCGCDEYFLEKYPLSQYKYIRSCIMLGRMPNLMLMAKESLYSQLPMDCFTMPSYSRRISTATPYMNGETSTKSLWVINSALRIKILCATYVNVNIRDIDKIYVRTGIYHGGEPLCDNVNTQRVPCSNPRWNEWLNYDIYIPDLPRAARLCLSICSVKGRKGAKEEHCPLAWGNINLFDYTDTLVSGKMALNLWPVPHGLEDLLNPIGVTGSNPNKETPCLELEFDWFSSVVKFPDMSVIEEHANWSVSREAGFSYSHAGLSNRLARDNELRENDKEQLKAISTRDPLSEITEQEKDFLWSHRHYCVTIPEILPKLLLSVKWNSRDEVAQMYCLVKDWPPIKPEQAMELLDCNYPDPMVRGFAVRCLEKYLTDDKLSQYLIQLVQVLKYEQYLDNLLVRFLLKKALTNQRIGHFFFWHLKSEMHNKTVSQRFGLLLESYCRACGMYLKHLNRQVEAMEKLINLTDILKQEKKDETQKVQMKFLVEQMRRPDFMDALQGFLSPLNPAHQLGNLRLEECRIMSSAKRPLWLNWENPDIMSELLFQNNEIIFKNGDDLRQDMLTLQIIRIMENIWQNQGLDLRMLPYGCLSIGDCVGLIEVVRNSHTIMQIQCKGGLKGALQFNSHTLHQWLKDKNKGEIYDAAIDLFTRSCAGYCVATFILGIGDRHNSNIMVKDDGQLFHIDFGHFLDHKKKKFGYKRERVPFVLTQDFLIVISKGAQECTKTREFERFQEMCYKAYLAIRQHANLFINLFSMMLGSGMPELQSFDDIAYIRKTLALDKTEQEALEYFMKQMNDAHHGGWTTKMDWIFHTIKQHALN
Measured Property: IC50 (nM)
Reply numerically in nM, unit not repeated.

**Q:** // lookup IC50 | system=PI 3-kinase alpha (Homo sapiens, UniProt P42336) | key= Cc1ccc(S(=O)(=O)N[C@H]2CC[C@H](O)CC2)cc1-c1cnc(N)c(-n2cncn2)n1
**A:** 160

**Q:** And the next one, Cc1ccc(S(=O)(=O)NCC2COCCN2C)cc1-c1cnc(N)c(-c2cn(C)nc2C)n1 (stereo not shown) [Example 128.2] ?
**A:** 270

**Q:** And the next one, Cc1ccc(S(=O)(=O)N[C@H]2C[C@@H](O)C2)cc1-c1cnc(N)c(-n2cncn2)n1 [Example 71b] ?
**A:** 760

**Q:** And the next one, Cc1ccc(S(=O)(=O)N[C@@H](C)CO)cc1-c1cnc(N)c(-n2cncn2)n1 ?
**A:** 1700

**Q:** And the next one, Cc1ncc(-c2nc(-c3cc(S(=O)(=O)NCC4CCOCC4)ccc3C)cnc2N)s1 ?
**A:** 40

**Q:** And the next one, Cc1ccc(S(=O)(=O)NOCCN(C)C)cc1-c1cnc(N)c(-n2cncn2)n1 ?
**A:** 860

**Q:** And the next one, CCN1CCC[C@@H]1CNS(=O)(=O)c1ccc(C)c(-c2cnc(N)c(-c3cnc(C)s3)n2)c1 ?
**A:** 110

**Q:** And the next one, Cc1ncc(-c2nc(-c3cc(S(=O)(=O)NC[C@H]4CCOC4)ccc3C)cnc2N)s1 ?
**A:** 30

**Q:** And the next one, Cc1ccc(S(=O)(=O)N[C@H]2CC[C@H](O)CC2)cc1-c1cnc(N)c(-c2cncnc2)n1 ?
**A:** 910

**Q:** And the next one, Cc1ccc(S(=O)(=O)NCCC(C)(C)O)cc1-c1cnc(N)c(-n2cccn2)n1 ?
**A:** 680

**Q:** And the next one, Cc1ccc(S(=O)(=O)N2CC(F)(F)C(F)(F)C2)cc1-c1cnc(N)c(-n2cncn2)n1 ?
**A:** 6000

**Q:** And the next one, CCCc1noc(-c2nc(-c3cc(S(=O)(=O)N[C@H]4CC[C@H](O)CC4)ccc3C)cnc2N)n1 ?
**A:** 240

**Q:** And the next one, Cc1cc(-c2nc(-c3cc(S(=O)(=O)N4CC[C@@H](N)C4)ccc3C)cnc2N)ccn1 ?
**A:** 670

**Q:** And the next one, Cc1cc(-c2nc(-c3cc(S(=O)(=O)NCCC(C)(C)O)ccc3C)cnc2N)ccn1 ?
**A:** 230

**Q:** And the next one, Cc1cc(C)n(-c2nc(-c3cc(S(=O)(=O)NCC(C)(C)O)ccc3C)cnc2N)n1 ?
**A:** 2600

**Q:** And the next one, Cc1noc(-c2nc(-c3cc(S(=O)(=O)N[C@H]4CC[C@H](O)CC4)ccc3C)cnc2N)n1 ?
**A:** 820

**Q:** And the next one, Cc1ccc(S(=O)(=O)NCC(=O)C(C)(C)C)cc1-c1cnc(N)c(-n2cncn2)n1 ?
**A:** 160

**Q:** And the next one, Cc1ccc(S(=O)(=O)NCCC(C)(C)O)cc1-c1cnc(N)c(-c2ccc(N3CCCCC3)nc2)n1 ?
**A:** 1340

**Q:** And the next one, Cc1ccc(S(=O)(=O)NC[C@H]2COCCN2)cc1-c1cnc(N)c(-c2cn(C)nc2C)n1 ?
**A:** 220

**Q:** And the next one, Cc1ccc(S(=O)(=O)N2CC3(CC(O)C3)C2)cc1-c1cnc(N)c(-n2cncn2)n1 ?
**A:** 2000

**Q:** And the next one, Cc1cc(-c2nc(-c3cc(S(=O)(=O)NCC4(O)COC4)ccc3C)cnc2N)ccn1 ?
**A:** 2000

**Q:** And the next one, COCCCNS(=O)(=O)c1ccc(C)c(-c2cnc(N)c(-n3cncn3)n2)c1 ?
**A:** 1700

**Q:** And the next one, CCc1noc(-c2nc(-c3cc(S(=O)(=O)N[C@H]4CC[C@H](O)CC4)ccc3C)cnc2N)n1 ?
**A:** 540

**Q:** And the next one, Cc1ccc(S(=O)(=O)NCC2(O)CC2)cc1-c1cnc(N)c(-n2cncn2)n1 ?
**A:** 680

**Q:** And the next one, Cc1ccc(S(=O)(=O)NC2CCC(F)(F)CC2)cc1-c1cnc(N)c(-c2cnn(C)c2)n1 ?
**A:** 190

**Q:** And the next one, Cc1ccc(S(=O)(=O)NC[C@H]2CCOC2)cc1-c1cnc(N)c(-n2cncn2)n1 ?
**A:** 200

**Q:** And the next one, Cc1nc(-c2nc(-c3cc(S(=O)(=O)NCC(C)(C)O)ccc3C)cnc2N)c(C)s1 ?
**A:** 760

**Q:** And the next one, Cc1ccc(S(=O)(=O)N[C@H]2C[C@H](O)C2)cc1-c1cnc(N)c(-n2cncn2)n1 [Example 71a] ?
**A:** 330

**Q:** And the next one, CCONS(=O)(=O)c1ccc(C)c(-c2cnc(N)c(-n3cncn3)n2)c1 ?
**A:** 860

**Q:** And the next one, CCc1noc(-c2nc(-c3cc(S(=O)(=O)N4CCC(CO)CC4)ccc3C)cnc2N)n1 ?
**A:** 1770

**Q:** And the next one, Cc1ncc(-c2nc(-c3cc(S(=O)(=O)NCC4(O)CCOCC4)ccc3C)cnc2N)s1 ?
**A:** 20

---

target: mTOR (Homo sapiens); experiment: Lanthascreen kinase binding assay, assay G; settings: read-out: Assay G mTOR IC50
Measured Property: pIC50
Friendly reminder that pIC50 comes from taking -log10 of the concentration in mol/L.

**Q:** // lookup pIC50 | system=mTOR (Homo sapiens) | key= Cc1ncc(-c2nc(-c3cc(S(=O)(=O)NC[C@H]4C[C@@H](O)C4)ccc3C)cnc2N)s1 [Example 20a]
**A:** 5.73

**Q:** And the next one, Cc1ccc(S(=O)(=O)NC2CC3(CC(O)C3)C2)cc1-c1cnc(N)c(-c2cn(C)nc2C)n1 (stereo not shown) [Example 74] ?
**A:** 5.46

---

target: PI 3-kinase delta (Homo sapiens); test: Cellular assay J1, p-Akt (S473) in Rat-1 cells, Surefire format; assay type: cell-based; settings: non-asterisked data: version J1 (Surefire format), Rat-1 cells; read-out: Assay J PI3Kδ IC50
Sequence (O00329 whole entry): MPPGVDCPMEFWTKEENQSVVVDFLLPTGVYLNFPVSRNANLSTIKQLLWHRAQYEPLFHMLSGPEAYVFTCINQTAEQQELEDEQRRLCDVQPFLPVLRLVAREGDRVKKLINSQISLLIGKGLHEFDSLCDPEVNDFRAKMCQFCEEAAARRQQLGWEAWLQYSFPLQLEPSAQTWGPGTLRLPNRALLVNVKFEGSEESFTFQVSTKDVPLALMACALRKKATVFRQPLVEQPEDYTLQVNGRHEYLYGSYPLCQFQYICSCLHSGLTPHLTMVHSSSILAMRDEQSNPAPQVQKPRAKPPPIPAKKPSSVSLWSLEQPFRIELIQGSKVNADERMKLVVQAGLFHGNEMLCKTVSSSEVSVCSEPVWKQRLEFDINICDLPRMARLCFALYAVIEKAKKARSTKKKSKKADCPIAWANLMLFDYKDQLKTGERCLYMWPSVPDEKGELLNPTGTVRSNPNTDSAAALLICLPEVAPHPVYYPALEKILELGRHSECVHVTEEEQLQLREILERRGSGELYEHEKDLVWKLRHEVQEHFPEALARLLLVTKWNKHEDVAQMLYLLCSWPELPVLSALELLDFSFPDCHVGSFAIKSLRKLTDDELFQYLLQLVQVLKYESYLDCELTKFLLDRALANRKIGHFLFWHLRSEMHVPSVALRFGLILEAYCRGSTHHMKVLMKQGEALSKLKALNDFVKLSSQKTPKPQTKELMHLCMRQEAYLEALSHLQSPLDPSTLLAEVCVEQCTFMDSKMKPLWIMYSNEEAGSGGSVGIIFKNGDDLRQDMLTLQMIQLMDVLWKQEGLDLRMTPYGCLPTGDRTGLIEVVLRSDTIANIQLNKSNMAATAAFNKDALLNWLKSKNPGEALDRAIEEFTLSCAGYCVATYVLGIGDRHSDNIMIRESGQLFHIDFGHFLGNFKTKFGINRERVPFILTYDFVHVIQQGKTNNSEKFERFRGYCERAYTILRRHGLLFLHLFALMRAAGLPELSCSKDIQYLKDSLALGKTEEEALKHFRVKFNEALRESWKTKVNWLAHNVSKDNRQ
Sequence (Q63787 whole entry partner): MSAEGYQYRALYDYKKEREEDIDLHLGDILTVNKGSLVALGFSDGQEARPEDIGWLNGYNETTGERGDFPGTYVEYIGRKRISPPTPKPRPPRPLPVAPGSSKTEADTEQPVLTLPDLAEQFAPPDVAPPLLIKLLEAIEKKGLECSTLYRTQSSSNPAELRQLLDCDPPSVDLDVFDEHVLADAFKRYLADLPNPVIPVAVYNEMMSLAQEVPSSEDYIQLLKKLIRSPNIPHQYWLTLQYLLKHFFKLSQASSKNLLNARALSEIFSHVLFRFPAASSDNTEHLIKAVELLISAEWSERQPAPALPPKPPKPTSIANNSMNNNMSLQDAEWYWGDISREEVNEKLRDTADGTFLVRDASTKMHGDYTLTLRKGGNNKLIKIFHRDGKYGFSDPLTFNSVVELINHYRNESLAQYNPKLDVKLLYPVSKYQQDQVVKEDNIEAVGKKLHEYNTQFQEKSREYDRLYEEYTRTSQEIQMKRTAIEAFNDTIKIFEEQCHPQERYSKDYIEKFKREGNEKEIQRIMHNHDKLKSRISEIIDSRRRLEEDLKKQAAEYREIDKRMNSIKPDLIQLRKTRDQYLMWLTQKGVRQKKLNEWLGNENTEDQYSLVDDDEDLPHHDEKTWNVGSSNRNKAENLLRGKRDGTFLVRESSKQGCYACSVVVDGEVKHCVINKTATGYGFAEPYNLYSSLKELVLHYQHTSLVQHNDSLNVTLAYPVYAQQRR
Measured Property: IC50

**Q:** // returns reported IC50 for input CC(C)(O)CNS(=O)(=O)c1ccc(Cl)c(-c2cnc(N)c(-n3cncn3)n2)c1
**A:** 5920 nM

**Q:** And the next one, Cc1cc(F)c(S(=O)(=O)NCC(C)(C)O)cc1-c1cnc(N)c(-n2cncn2)n1 ?
**A:** 1190 nM

**Q:** And the next one, CC(C)(O)CCNS(=O)(=O)c1ccc(Cl)c(-c2cnc(N)c(-n3cncn3)n2)c1 ?
**A:** 2360 nM

**Q:** And the next one, Cc1ccc(S(=O)(=O)NCCC(C)(C)O)cc1-c1cnc(N)c(-c2cn(C)nc2C)n1 ?
**A:** 3410 nM

**Q:** And the next one, Cc1ccc(S(=O)(=O)NC[C@H]2COCCN2)cc1-c1cnc(N)c(-c2cn(C)nc2C)n1 ?
**A:** > 10000 nM

**Q:** And the next one, Cc1ccc(S(=O)(=O)N2CCCC(F)(F)C2)cc1-c1cnc(N)c(-n2cncn2)n1 ?
**A:** 1140 nM

**Q:** And the next one, CCc1nnc(-c2nc(-c3cc(S(=O)(=O)N[C@H]4CC[C@H](O)CC4)ccc3C)cnc2N)o1 ?
**A:** 3550 nM

**Q:** And the next one, Cc1ncc(-c2nc(-c3cc(S(=O)(=O)NC4CC(O)C4)ccc3C)cnc2N)s1 (mixture of isomers) ?
**A:** 1190 nM

**Q:** And the next one, Cc1ccc(S(=O)(=O)NOCC(C)C)cc1-c1cnc(N)c(-n2cncn2)n1 ?
**A:** 400 nM

**Q:** And the next one, Cc1ncc(-c2nc(-c3cc(S(=O)(=O)N[C@H]4CC[C@@H](O)CC4)ccc3C)cnc2N)s1 ?
**A:** 1220 nM

**Q:** And the next one, Cc1cc(-c2nc(-c3cc(S(=O)(=O)NC[C@H]4CCCO4)ccc3C)cnc2N)ccn1 ?
**A:** 4970 nM

**Q:** And the next one, Cc1ccc(S(=O)(=O)NCC2(C)CCCO2)cc1-c1cnc(N)c(-c2cn(C)nc2C)n1 (stereo not shown) ?
**A:** 780 nM

**Q:** And the next one, Cc1ncc(-c2nc(-c3cc(S(=O)(=O)NCCCO)ccc3C)cnc2N)s1 ?
**A:** 600 nM

**Q:** And the next one, Cc1ccc(S(=O)(=O)N[C@H]2CC[C@H](O)CC2)cc1-c1cnc(N)c(-c2nc(C3CC3)no2)n1 ?
**A:** 660 nM

**Q:** And the next one, Cc1ncc(-c2nc(-c3cc(S(=O)(=O)NC[C@H]4C[C@@H](O)C4)ccc3C)cnc2N)s1 [Example 20a] ?
**A:** 420 nM

**Q:** And the next one, Cc1ccc(S(=O)(=O)NCC2(C)COC2)cc1-c1cnc(N)c(-c2cnn(C)c2)n1 ?
**A:** 3450 nM
